- run_description: qHTS assay to identify small molecule agonists of the RXR signaling pathway - cell viability counter screen (AID 1159529);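 further: HEK 293T cells carrying an RXR-alpha UAS beta-lactamase reporter; nearly all actives have a fitted effect of over 50% in size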
- settings: RXR-alpha-bla HEK293T viability, CellTiter-Glo, 16 h; series mostly up to 76.8 µM
Records with an inconclusive call do not appear. The source made the active and inactive calls. The call rests on the fitted dose curve; in most records, active means well fitted cell-killing curve with a large enough effect in the repeat runs; inconclusive means weak or mixed curves, or effect the other way; inactive means no such curve, though single readings can be large or run the other way.
assay_readout: outcome

>>> recorded_value("CCCCCCCCCC(C)C=O (stereo not drawn)")
"inactive"
>>> recorded_value("[O-][n+]1ccc(Cl)cc1")
"inactive"
>>> recorded_value("O=C(Cl)c1cc(Cl)cc(Cl)c1")
"inactive"
>>> recorded_value("CC(COc1ccccc1)NC(C)C(O)c1ccc(O)cc1 (stereo not drawn)")
"inactive"
>>> recorded_value("CCCc1nc(C)c2c(=O)[nH]c(-c3cc(S(=O)(=O)N4CCN(CC)CC4)ccc3OCC)nn12")
"inactive"
>>> recorded_value("CC1(C)CC(O)CC(C)(C)N1[O]")
"inactive"
>>> recorded_value("CCOCCn1c(N2CCCN(C)CC2)nc2ccccc21")
"inactive"
>>> recorded_value("CCCC(=O)OCc1ccccc1")
"inactive"
>>> recorded_value("CCCCCCCCS")
"inactive"
>>> recorded_value("CCCCCCCCCCCCSC#N")
"inactive"
>>> recorded_value("N#Cc1ccc(CC(=O)c2cccc(C(F)(F)F)c2)cc1")
"inactive"
>>> recorded_value("C/C(=C\\C(C)CC(C)CC(C)C)C1CC(=O)OC1=O (stereo not drawn)")
"inactive"
>>> recorded_value("Nc1ccc(F)cc1F")
"inactive"
>>> recorded_value("C=C(C)C(=O)OCCCCCCCCCCOC(=O)C(=C)C")
"inactive"
>>> recorded_value("O=C(O)c1cc(C(=O)O)c(C(=O)O)cc1C(=O)O")
"inactive"
>>> recorded_value("CC(C)=CCC/C(C)=C/C=N/O")
"inactive"
>>> recorded_value("S=c1[nH][nH]c(=S)s1")
"inactive"
>>> recorded_value("CC(CC(C#N)(c1ccccc1)C(C)C)N(C)C (stereo not drawn)")
"inactive"
>>> recorded_value("CCCCCCCCCCCCSCCOCCO")
"inactive"
>>> recorded_value("FC1(F)C(F)(F)C(F)(F)C2(F)C(F)(C1(F)F)C(F)(F)C(F)(F)C1(F)C(F)(F)C(F)(F)C(F)(F)C(F)(F)C12F (stereo not drawn)")
"inactive"
>>> recorded_value("CCCCOc1ccc(N)cc1")
"inactive"
>>> recorded_value("CC(C)NC(=O)c1ccccc1N")
"inactive"
>>> recorded_value("O=C(O)CCc1nc2ccccc2[nH]1")
"inactive"
>>> recorded_value("Cc1c(Cl)cccc1[N+](=O)[O-]")
"inactive"
>>> recorded_value("CC(C)=CCCC(C)C=O (stereo not drawn)")
"inactive"
>>> recorded_value("C[Si](C)(C)O[Si](C)(C)O[Si](C)(C)C")
"inactive"
>>> recorded_value("O=C(O)COCC(=O)O")
"inactive"
>>> recorded_value("O=C(O)c1ccc2cc(O)ccc2c1")
"inactive"

// data source = PubChem BioAssay (Tox21)
